target.system: Protein farnesyltransferase (Homo sapiens, UniProt P49354+P49356)
test.name: Inhibition of farnesyltransferase from human Burkitt lymphoma (Daudi) cells
Note to self: IC50 under 0.8 µM means 1.0, ties and anything higher get 0.0.

> print(dat)
                            molecule.smiles  cat
1  COC(=O)c1cccc(-c2ccc(NC(=O)c3cccc(S)c3)cc2-c2ccccc2)c1  0.0
2  N[C@@H](CS)CNc1ccc(-c2cccc(C3N=NN=N3)c2)cc1  1.0
3  COC(=O)c1cccc(-c2ccc(NCc3cncn3Cc3ccc(N)cc3)cc2-c2ccccc2)c1  0.0
4  COC(=O)c1cccc(-c2ccc(NC[C@@H](N)CS)cc2)c1  0.0
5  COC(=O)c1cccc(-c2ccc(NCc3ccccc3S)cc2-c2ccccc2)c1  0.0

Lab note: confirm whether the reported IC50 for this compound is below 0.8 µM, equality not counting. compound: `O=C(O)c1cccc(-c2ccc(NC(=O)c3cccc(S)c3)cc2-c2ccccc2)c1` 0.0

* * *

target.system: Geranylgeranyl transferase type I (Homo sapiens, UniProt P49354+P53609)
test.name: Inhibition of partially purified Geranylgeranyl transferase type I (GGTase-I) from human Burkitt lymphoma (Daudi) cells
# IC50 annotations
Express your answer in µM, writing the number without its unit.

Worked examples, 3 compounds total:
> print(dat)
                            molecule.smiles  recorded.number
1  CCCOc1cc(NC[C@@H](N)CS)ccc1-c1cccc(C(=O)O)c1              2.4
2  N#Cc1ccc(Cn2cncc2CNc2ccc(-c3cccc(C(=O)O)c3)c(-c3ccccc3)c2)cc1              4.4
3  COC(=O)c1cccc(-c2ccc(NCc3cncn3Cc3ccc(C#N)cc3)cc2-c2ccccc2)c1              6.9

If you can, please state the reported IC50 value of `N[C@@H](CS)CNc1ccc(-c2cccc(C(=O)O)c2)c(-c2ccccc2)c1` . 0.64

* * *

target.system: Geranylgeranyl transferase type I (Homo sapiens, UniProt P49354+P53609)
test.name: Inhibition of partially purified Geranylgeranyl transferase type I (GGTase-I) from human Burkitt lymphoma (Daudi) cells
# IC50 annotations
Express your answer in µM, writing the number without its unit.

> print(dat)
                            molecule.smiles  reading.unit  recorded.number
1  N[C@@H](CS)CNc1ccc(-c2cccc(C(=O)O)c2)cc1            µM               90

Read the next record carefully.
If you can, please state the reported IC50 value of `COC(=O)c1cccc(-c2ccc(NCc3cncn3Cc3ccc([N+](=O)[O-])cc3)cc2-c2ccccc2)c1` . 5.9

* * *

target.system: Geranylgeranyl transferase type I (Homo sapiens, UniProt P49354+P53609)
test.name: Inhibition of partially purified Geranylgeranyl transferase type I (GGTase-I) from human Burkitt lymphoma (Daudi) cells
# pIC50 annotations
Value format note: pIC50 is -log10 of concentration (mol/L); just state the number.

Worked examples, 2 compounds total:
> print(dat)
                            molecule.smiles                             target.system  recorded.number
1  COC(=O)c1cccc(-c2ccc(NC[C@@H](N)CS)cc2)c1  Geranylgeranyl transferase type I (Homo sapiens, UniProt P49354+P53609)             4.00
2  COc1cc(NC[C@@H](N)CS)ccc1-c1cccc(C(=O)O)c1  Geranylgeranyl transferase type I (Homo sapiens, UniProt P49354+P53609)             4.46

If you can, please state the reported pIC50 value of `Nc1ccc(Cn2cncc2CNc2ccc(-c3cccc(C(=O)O)c3)c(-c3ccccc3)c2)cc1` . 5.15

* * *

target.system: Geranylgeranyl transferase type I (Homo sapiens, UniProt P49354+P53609)
test.name: Inhibition of partially purified Geranylgeranyl transferase type I (GGTase-I) from human Burkitt lymphoma (Daudi) cells
# pIC50 annotations
Value format note: pIC50 is -log10 of concentration (mol/L); just state the number.

If you can, please state the reported pIC50 value of `O=C(O)c1cccc(-c2ccc(NCc3cnc[nH]3)cc2-c2ccccc2)c1` . 5.30

If you can, please state the reported pIC50 value of `N[C@@H](CS)CNc1ccc(-c2cccc(C3N=NN=N3)c2)cc1` . 5.36

If you can, please state the reported pIC50 value of `O=C(O)c1cccc(-c2ccc(NCc3cncn3Cc3ccc([N+](=O)[O-])cc3)cc2-c2ccccc2)c1` . 5.41

* * *

# IC50 annotations
target.system: Protein farnesyltransferase (Homo sapiens, UniProt P49354+P49356)
test.name: Inhibition of farnesyltransferase from human Burkitt lymphoma (Daudi) cells
Express your answer in nM, writing the number without its unit.

Worked examples, 3 compounds total:
> print(dat)
                            molecule.smiles  recorded.number
1       Cc1cccc(-c2ccc(NC[C@@H](N)CS)cc2)c1              770
2  COc1cc(NC[C@@H](N)CS)ccc1-c1cccc(C(=O)O)c1               37
3  O=C(CCS)Nc1ccc(-c2cccc(C(=O)O)c2)c(-c2ccccc2)c1             3800

If you can, please state the reported IC50 value of `N#Cc1ccc(Cn2cncc2CNc2ccc(-c3cccc(C(=O)O)c3)c(-c3ccccc3)c2)cc1` . 430

* * *

target.system: Geranylgeranyl transferase type I (Homo sapiens, UniProt P49354+P53609)
test.name: Inhibition of partially purified Geranylgeranyl transferase type I (GGTase-I) from human Burkitt lymphoma (Daudi) cells
experimental.endpoint: IC50

> print(dat)
                            molecule.smiles                             target.system    result
1  COC(=O)c1cccc(-c2ccc(NC(=O)CCS)cc2-c2ccccc2)c1  Geranylgeranyl transferase type I (Homo sapiens, UniProt P49354+P53609)   > 10 µM
2  COC(=O)c1cccc(-c2ccc(NCc3cncn3Cc3ccc(N)cc3)cc2-c2ccccc2)c1  Geranylgeranyl transferase type I (Homo sapiens, UniProt P49354+P53609)   > 10 µM
3  COC(=O)c1cccc(-c2ccc(NCc3ccc(S)cc3)cc2-c2ccccc2)c1  Geranylgeranyl transferase type I (Homo sapiens, UniProt P49354+P53609)   > 10 µM
4  COC(=O)c1cccc(-c2ccc(NCc3cccc(S)c3)cc2-c2ccccc2)c1  Geranylgeranyl transferase type I (Homo sapiens, UniProt P49354+P53609)   > 10 µM
5          N[C@@H](CS)CNc1ccc(-c2ccccc2)cc1  Geranylgeranyl transferase type I (Homo sapiens, UniProt P49354+P53609)  > 100 µM

If you can, please state the reported IC50 value of `O=C(O)c1cccc(-c2ccc(NCc3cccc(S)c3)cc2-c2ccccc2)c1` . > 10 µM

* * *

target.system: Geranylgeranyl transferase type I (Homo sapiens, UniProt P49354+P53609)
test.name: Inhibition of partially purified Geranylgeranyl transferase type I (GGTase-I) from human Burkitt lymphoma (Daudi) cells
pIC50: −log10 of the molar value.
experimental.endpoint: pIC50

Worked examples, 2 molecules total:
> print(dat)
                            molecule.smiles  result
1  COC(=O)c1cccc(-c2ccc(NC(=O)c3cccc(S)c3)cc2-c2ccccc2)c1  < 5.00
2       Cc1cccc(-c2ccc(NC[C@@H](N)CS)cc2)c1  < 4.00

Report pIC50 for `O=C(CCS)Nc1ccc(-c2cccc(C(=O)O)c2)c(-c2ccccc2)c1` tested on Geranylgeranyl transferase type I (Homo sapiens, UniProt P49354+P53609). < 5.00
